These measurements were taken from patent US7427608B2.

testedOn: Epidermal Growth Factor Receptor Tyrosine Kinase (EGFRTK) (Homo sapiens, UniProt P00533)
Sequence (P00533 25-1210): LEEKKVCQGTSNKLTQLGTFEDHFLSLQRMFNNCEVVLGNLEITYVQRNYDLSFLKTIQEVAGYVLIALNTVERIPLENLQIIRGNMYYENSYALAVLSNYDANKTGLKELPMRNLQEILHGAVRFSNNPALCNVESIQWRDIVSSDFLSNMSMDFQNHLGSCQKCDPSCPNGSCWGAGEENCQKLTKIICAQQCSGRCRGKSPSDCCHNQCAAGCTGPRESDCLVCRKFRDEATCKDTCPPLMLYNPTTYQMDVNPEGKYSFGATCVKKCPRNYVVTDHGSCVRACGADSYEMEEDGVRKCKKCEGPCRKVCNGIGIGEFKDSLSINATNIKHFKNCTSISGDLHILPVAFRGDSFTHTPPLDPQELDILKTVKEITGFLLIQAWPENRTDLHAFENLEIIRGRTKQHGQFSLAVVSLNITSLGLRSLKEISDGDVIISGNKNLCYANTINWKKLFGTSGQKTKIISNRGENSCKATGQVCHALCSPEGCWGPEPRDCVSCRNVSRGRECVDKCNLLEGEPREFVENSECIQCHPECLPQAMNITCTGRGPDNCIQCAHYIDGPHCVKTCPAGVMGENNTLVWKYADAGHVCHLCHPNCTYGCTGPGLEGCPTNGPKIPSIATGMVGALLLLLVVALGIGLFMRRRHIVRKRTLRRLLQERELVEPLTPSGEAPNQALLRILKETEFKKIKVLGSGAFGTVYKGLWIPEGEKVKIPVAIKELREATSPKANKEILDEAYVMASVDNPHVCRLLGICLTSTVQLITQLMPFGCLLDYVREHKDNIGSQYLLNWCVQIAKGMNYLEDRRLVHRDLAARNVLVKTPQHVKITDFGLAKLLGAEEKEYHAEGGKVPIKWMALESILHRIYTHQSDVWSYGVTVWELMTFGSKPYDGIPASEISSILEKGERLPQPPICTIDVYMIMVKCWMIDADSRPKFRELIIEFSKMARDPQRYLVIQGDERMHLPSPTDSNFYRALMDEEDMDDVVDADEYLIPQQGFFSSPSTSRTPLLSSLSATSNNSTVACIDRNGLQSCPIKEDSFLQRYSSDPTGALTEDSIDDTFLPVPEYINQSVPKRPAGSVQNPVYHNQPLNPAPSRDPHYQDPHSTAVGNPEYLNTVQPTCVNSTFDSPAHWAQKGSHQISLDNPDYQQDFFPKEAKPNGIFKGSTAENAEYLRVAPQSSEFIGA
measurementDescription: Inhibition of EGFRTK
Type: biochemical
particulars: compound at 10 micromolar
Answer each item with its documented inhibition at 10 µM.
Please give a number only; it is taken to be in %.

The reported Epidermal Growth Factor Receptor Tyrosine Kinase (EGFRTK) (Homo sapiens, UniProt P00533) inhibition at 10 µM of CCCOc1ccc(NC(=O)c2[nH]c3ccc(F)cc3c2-c2ccccc2)cc1CO [Compound 2d] is 23

inhibition at 10 µM on Epidermal Growth Factor Receptor Tyrosine Kinase (EGFRTK) (Homo sapiens, UniProt P00533) for O=C(NCc1ccc(O)c(O)c1)c1cc2cc(F)ccc2[nH]1 [Compound 1gggg] is 25

Bench note, Epidermal Growth Factor Receptor Tyrosine Kinase (EGFRTK) (Homo sapiens, UniProt P00533): entry O=C(NCc1ccccc1F)c1[nH]c2ccc(F)cc2c1-c1ccccc1 [Compound 2s] , its inhibition at 10 µM = 33

// assay Epidermal Growth Factor Receptor Tyrosine Kinase (EGFRTK) (Homo sapiens, UniProt P00533), entry O=C(NCCCCCCO)c1cc2cc(F)ccc2[nH]1 [Compound 1qqqq] , inhibition at 10 µM value = 18

Epidermal Growth Factor Receptor Tyrosine Kinase (EGFRTK) (Homo sapiens, UniProt P00533) data for COc1ccc(CNC(=O)c2cc3cc(F)ccc3[nH]2)cc1 [Compound 1ee] ; its inhibition at 10 µM: 16
